Listing of log10 Ki toward UniProtKB P19327, each taken from a published source.
Sequence (P19327 whole entry): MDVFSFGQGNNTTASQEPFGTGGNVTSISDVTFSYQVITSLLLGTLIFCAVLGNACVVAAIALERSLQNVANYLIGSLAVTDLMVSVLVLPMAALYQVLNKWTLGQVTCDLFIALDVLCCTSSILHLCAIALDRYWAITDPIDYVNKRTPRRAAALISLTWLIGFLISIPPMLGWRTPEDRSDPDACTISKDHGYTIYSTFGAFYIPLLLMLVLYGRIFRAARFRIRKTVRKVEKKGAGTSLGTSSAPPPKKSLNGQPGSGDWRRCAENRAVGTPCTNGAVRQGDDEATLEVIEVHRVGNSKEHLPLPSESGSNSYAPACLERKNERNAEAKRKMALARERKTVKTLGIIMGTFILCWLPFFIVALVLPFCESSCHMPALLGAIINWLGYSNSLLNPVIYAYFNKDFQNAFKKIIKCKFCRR
Heads up: the numbers are on a log10 scale; they represent Ki in nM.

Some entries whose results are on file:
- compound: "Cl.O=C1C2CCCCN2C(=O)N1CCCCN1CCN(c2cccc(Br)c2)CC1 (configuration not stated)"
  log10 Ki: 0.60
- compound: "O=C1C2CCCN2C(=O)N1CCCCN1CCN(c2cccc3ccccc23)CC1 (configuration not stated)"
  log10 Ki: 0.38
- compound: "COc1ccccc1N1CCN(CCCCNC(=O)c2cccn2C)CC1.O=C(O)/C=C/C(=O)O"
  log10 Ki: -0.13
- compound: "O=S(=O)(NCCCCN1CCc2sccc2C1)c1ccc2cccnc2c1"
  log10 Ki: 2.68
- compound: "COc1cccc2c1[C@@H]1CCN(CCCN3C(=O)CC4(CCCC4)CC3=O)C[C@@H]1C2"
  log10 Ki: 2.84

Find the measured log10 Ki: item CCCN(CCC)[C@H]1CCc2cccc(C(=O)OC)c2[C@H]1C , target or system UniProtKB P19327.
2.62

Lab note: need log10 Ki for Cc1ccc(-n2nc(OCCCN3CCC(c4noc5cc(F)ccc45)CC3)ccc2=O)cc1 on UniProtKB P19327, anyone have it?
1.53

Kindly state the measured log10 Ki obtained for O=C(c1ccc(Cl)c(Cl)c1)N1CCC(CNCc2cccc(-c3cnco3)n2)CC1 with UniProtKB P19327.
-0.03

Fill in the recorded log10 Ki for this compound, with UniProtKB P19327 as test system: O=C(NCCCN1CCN(c2ccccc2F)CC1)c1ccccn1
2.36

What log10 Ki appears in the records for this compound with UniProtKB P19327? COc1ccccc1N1CCN(CCCCNS(=O)(=O)c2cnc3ccccc3c2)CC1
0.57

----------
UniProtKB P19327 Ki, compiled from various sources.
Provide only the numeric value, understood in µM.

Here are 10 molecules together with their reported answers.
- molecule: "CC1(C)Oc2cccc(OCCNCc3cccc(C4=CCCC4)c3)c2O1"
  unitsLabel: "µM"
  Ki: 0.00955
- molecule: "O=C1C2CCCN2C(=O)N1CCCCNCc1ccc2ccccc2n1 (stereo not drawn)"
  unitsLabel: "µM"
  Ki: 0.0083
- molecule: "O=c1c(-c2ccccc2Cl)c2ccccn2c(=O)n1CCCCN1CCC(c2c[nH]c3ccc(F)cc23)CC1"
  unitsLabel: "µM"
  Ki: 0.0159
- molecule: "COc1cccc(C2=CCC(N3CCN(c4cccc5ccccc45)CC3)CC2)c1 (stereo not drawn)"
  unitsLabel: "µM"
  Ki: 0.015
- molecule: "COc1ccccc1N1CCN(Cc2cn(-c3cccc(C)c3C)c3ccccc23)CC1"
  unitsLabel: "µM"
  Ki: 0.017
- molecule: "CCc1ccccc1-n1cc(CN2CCN(c3ccccc3)CC2)c2ccccc21"
  unitsLabel: "µM"
  Ki: 0.134
- molecule: "COc1ccccc1N1CCN(CCn2c(=O)[nH]c3c(-c4ccc(Cl)cc4)c[nH]c3c2=O)CC1"
  unitsLabel: "µM"
  Ki: 0.0326
- molecule: "COc1ccccc1N1CCN(CCCCNC(=O)C2CC3CCC2C3)CC1 (stereo not drawn)"
  unitsLabel: "µM"
  Ki: 0.00023
- molecule: "c1ccc2c(c1)OCC(COCCCN1CCC(c3nc4ccccc4s3)CC1)O2 (stereo not drawn)"
  unitsLabel: "µM"
  Ki: 0.092
- molecule: "COc1ccccc1N1CCN(CCN(C(=O)c2ccc(NC(=O)CCl)cc2)c2ccccn2)CC1"
  unitsLabel: "µM"
  Ki: 0.022

What reported Ki corresponds to Fc1ccc(N2CCN(Cc3cnn(-c4ccc(F)cc4)c3)CC2)cc1 on UniProtKB P19327?
0.24

UniProtKB P19327 / Ki / O=C(NCCN1CCN(c2ccccc2Cl)CC1)c1ccccn1 : value?
0.412

# value lookup — system UniProtKB P19327, readout Ki, item COc1ccccc1N1CCN(CCN2C(=O)C3CCCCN3C2=O)CC1 (stereo not drawn)
0.0455

# get_value(readout= Ki, system= UniProtKB P19327) for O=C(c1cc(Cl)cc(Cl)c1)N1CCC(CNCc2cccc(-n3cccn3)n2)CC1
0.0263

Record O=C1C2C3C=CC(C4CC34)C2C(=O)N1CCCCN1CCN(c2cccc(Cl)c2)CC1 (stereo not drawn) : what is its Ki with UniProtKB P19327?
0.014

Any idea what Ki came out for c1ccc(OCCCN2CCN(c3cccc4ccoc34)CC2)cc1 on UniProtKB P19327?
0.00085

Give recorded Ki with UniProtKB P19327 for the following molecule: CCCN(CCC)CCCC1CCCc2ccccc21 (stereo not drawn)
0.4

Request - read-out Ki | tested on UniProtKB P19327 | molecule c1ccc(OCCN2CCN(c3cccc4ccoc34)CC2)cc1
0.00046

Ki of CC(C)Oc1ccccc1N1CCN(Cc2ccc(CN(C)S(=O)(=O)C(C)C)n2C)CC1.O=C(O)CCC(=O)O on UniProtKB P19327?
0.0057

# returns recorded Ki (system: UniProtKB P19327) for Cc1cccc(S(=O)(=O)NCCN=C(N)N2CCC(C)CC2)c1
1.1
